Attribution: paper PMC10812921

Molecular target: POU2 (OCT2 POU domain);BOB1 (OBF1, OCA-B) (human;human, UniProt P09086;Q16633 175-386;1-256, |)
Sequence 1: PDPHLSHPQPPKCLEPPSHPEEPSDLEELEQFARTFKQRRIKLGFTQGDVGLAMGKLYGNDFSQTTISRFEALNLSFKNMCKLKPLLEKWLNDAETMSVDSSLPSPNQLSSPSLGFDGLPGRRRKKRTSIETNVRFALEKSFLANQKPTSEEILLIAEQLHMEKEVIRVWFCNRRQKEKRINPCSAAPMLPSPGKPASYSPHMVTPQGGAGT
Sequence 2: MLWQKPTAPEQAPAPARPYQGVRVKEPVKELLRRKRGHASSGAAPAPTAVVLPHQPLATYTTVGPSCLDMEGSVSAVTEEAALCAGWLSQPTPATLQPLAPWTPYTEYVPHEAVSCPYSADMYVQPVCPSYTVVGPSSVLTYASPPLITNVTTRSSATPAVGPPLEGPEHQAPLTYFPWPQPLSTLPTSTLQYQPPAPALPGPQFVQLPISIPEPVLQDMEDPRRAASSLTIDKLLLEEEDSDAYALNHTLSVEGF
Assay: EMSA-SELEX-seq; with BOB1 (ternary complex band); 20 mM Tris-HCl pH 7.6, 140 mM NaCl, 10% glycerol, 0.5 mM EDTA, 0.05% Triton X-100, 0.1 mg/mL BSA, 0.1 mg/mL poly(dI-dC), 5 mM DTT, room temperature, 20 min; high values mean tight binding
Settings: protein: recombinant;recombinant; copies: 1;1; dsDNA, one strand shown
quantity.measured: binding signal

Some solved entries appear below for comparison.
Exercise: Which measured binding signal value corresponds to AGATAAAC ?
Key: 0.0487 % of ANNNNAAN 8-mers

Exercise: Which measured binding signal value corresponds to AGCATAAA ?
Key: 0.0867 % of ANNNNAAN 8-mers

Exercise: Which measured binding signal value corresponds to ACAACAAC ?
Key: 0.0124 % of ANNNNAAN 8-mers

Exercise: Which measured binding signal value corresponds to AATTTAAT ?
Key: 0.162 % of ANNNNAAN 8-mers

Exercise: Which measured binding signal value corresponds to ATTAAAAA ?
Key: 0.09 % of ANNNNAAN 8-mers

Exercise: Which measured binding signal value corresponds to AACCCAAT ?
Key: 0.0223 % of ANNNNAAN 8-mers

I have 2 sequences here; please give me binding signal for each one.
1. ACGTCAAG
2. ATAAGAAA

Key:
1. 0.0198 % of ANNNNAAN 8-mers
2. 0.0826 % of ANNNNAAN 8-mers

I have 5 sequences here; please give me binding signal for each one.
1. AGAGTAAG
2. AGTTCAAT
3. AAATCAAC
4. AGCGCAAC
5. AGTTCAAA

Key:
0.0297 % of ANNNNAAN 8-mers
0.0421 % of ANNNNAAN 8-mers
0.0916 % of ANNNNAAN 8-mers
0.0107 % of ANNNNAAN 8-mers
0.0421 % of ANNNNAAN 8-mers

I have 7 sequences here; please give me binding signal for each one.
1. ATATGAAT
2. AAAACAAT
3. AAAGTAAT
4. AAGGGAAT
5. ATACCAAG
6. AGCGGAAG
7. ACTCCAAC

Key:
1: 0.141 % of ANNNNAAN 8-mers; 2: 0.0735 % of ANNNNAAN 8-mers; 3: 0.0941 % of ANNNNAAN 8-mers; 4: 0.0908 % of ANNNNAAN 8-mers; 5: 0.0305 % of ANNNNAAN 8-mers; 6: 0.0173 % of ANNNNAAN 8-mers; 7: 0.0198 % of ANNNNAAN 8-mers

I have 2 sequences here; please give me binding signal for each one.
1. AGTACAAG
2. ACTAGAAG

Key:
1. 0.0297 % of ANNNNAAN 8-mers
2. 0.0231 % of ANNNNAAN 8-mers
